The following molecules are shown together with reported composite z-score values.
Target: Follistatin (Homo sapiens) (UniProt P19883)
Sequence (P19883 whole entry, looked up): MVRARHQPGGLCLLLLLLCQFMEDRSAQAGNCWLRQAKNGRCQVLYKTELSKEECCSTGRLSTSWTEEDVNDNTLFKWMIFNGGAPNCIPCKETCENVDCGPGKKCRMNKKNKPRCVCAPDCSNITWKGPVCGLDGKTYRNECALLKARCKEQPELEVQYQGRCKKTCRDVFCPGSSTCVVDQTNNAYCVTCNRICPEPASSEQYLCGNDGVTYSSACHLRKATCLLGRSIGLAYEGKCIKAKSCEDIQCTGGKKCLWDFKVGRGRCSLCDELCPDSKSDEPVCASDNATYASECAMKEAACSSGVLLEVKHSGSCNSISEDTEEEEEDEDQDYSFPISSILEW
Assay: follistatin binders on small-molecule microarrays, primary screen, biochemical, small-molecule microarray, 635/667 nm fluorescence (AID 1132)
Settings: FST binding, 635 nm fluorescence, higher = more signal
Respond with the number and no other words.

Please review the following examples before continuing.
CC(=O)NCCCC[C@@H]1NC(=O)[C@@H]2C[C@H](C(=O)NCCCCN(C)C)[C@H](c3ccc(O)cc3)N2C1=O ... 0.296
COc1ccc([Si](C)(C)[C@@H]2[C@@H](CCn3cc([C@H](O)c4ccccc4)nn3)O[C@]3(C(=O)N(Cc4cccc(N5CCOC5=O)c4)c4ccccc43)[C@H]2C)cc1 ... -1.68

Q: Recorded composite z-score for COc1c(C)cc(-c2cc3c(c(-c4ccc(Oc5ccccc5)cc4)n2)[Si](C(C)C)(C(C)C)OC3)cc1C , please?
Result: -0.228

Q: CCN(CC)c1ccc(N2CC=CC34O[C@@H]5/C=C\CCCOC(=O)C5[C@H]3C(=O)N(C(CO)C(C)C)[C@@H]4C2=O)cc1 (stereo partly specified) ?
Result: -0.45

Q: What do we get for COc1ccc(CCNC(=O)[C@@]2(Sc3ccc(C)cc3)CC(=O)N(Cc3ccccc3Cl)[C@@H]2c2ccc(CO)cc2I)cc1 ?
Result: 1.03

Q: Quick one: COc1ccc(NN2C(C(O)c3ccc(OC)c(OCc4ccccc4)c3)C=CC3C(=O)N(C4CCCCC4)C(=O)C32)cc1 (stereo unspecified)
Result: 1.29

Q: // query: CCCC[C@H]1OB(O)C[C@H]2C1=C(C)C[C@H]1C(=O)N(Cc3ccccc3)C(=O)[C@H]12
Result: 0.797

Q: Further, for O=C/C=C/c1ccc2c(c1)OCO2 ?
Result: 0.952

Q: CCOC(=O)C[C@H]1[C@H](OC(=O)c2ccccc2-c2ccccc2)[C@@H](NC(=O)Cc2ccc(OC)cc2)c2cc(OCCCO)ccc2N1C(=O)c1ccccc1 , same question.
Result: 0.23

Q: What about this molecule? O=C1[C@]2(CO)C=C(Br)[C@@H](C[C@@H]2c2ccccc2)[C@@]12CO2
Result: 0.518

Q: Proceed to CC(=O)Nc1cc(Br)ccc1C(=O)O
Result: 0.0564

Q: // repeat for O=C1C2C=CC(C(O)c3cccs3)N(Nc3ccccc3F)C2C(=O)N1c1ccccc1 (stereo unspecified) and report
Result: 0.414

###

Assay: small-molecule microarray binders of probe aNog, primary screen, biochemical, biotinylated probe, 635/667 nm fluorescence (AID 1115);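 note: probe is biotinylated aNog protein used at 0.15 µg/mL for 1 h at 4 C; z-score combines 667 nm fluorescence of each spot with its signal to noise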
Conditions: higher = more signal
Each entry below carries its recorded composite z-score.
Please respond with just the number, no unit label.

CC(=O)NCCCC[C@@H]1NC(=O)[C@@H]2C[C@H](C(=O)NCCCCN(C)C)[C@H](c3ccc(O)cc3)N2C1=O ... -0.23
Cc1ccccc1C(O)C1C=CC2C(=O)N(C)C(=O)C2N1Nc1ccccc1 (centres undefined) ... 1.07
Cc1ccc(S[C@]2(C(=O)NCc3ccccc3)CC(=O)N(Cc3ccccc3)[C@@H]2c2ccc(CO)cc2)cc1 ... -0.364

Q: Using the record for CC(C)N1CC=CC23O[C@@H]4C=CCOC(=O)[C@@H]4[C@H]2C(=O)N(CCO)[C@@H]3C1=O (some centres undefined) , report its composite z-score.
Result: -0.178
